B1: Cyclic AMP-dependent transcription factor ATF-4 (Homo sapiens), P18848 (parent)
chain: MTEMSFLSSEVLVGDLMSPFDQSGLGAEESLGLLDDYLEVAKHFKPHGFSSDKAKAGSSEWLAVDGLVSPSNNSKEDAFSGTDWMLEKMDLKEFDLDALLGIDDLETMPDDLLTTLDDTCDLFAPLVQETNKQPPQTVNPIGHLPESLTKPDQVAPFTFLQPLPLSPGVLSSTPDHSFSLELGSEVDITEGDRKPDYTAYVAMIPQCIKEEDTPSDNDSGICMSPESYLGSPQHSPSTRGSPNRSLPSPGVLCGSARPKPYDPPGEKMVAAKVKGEKLDKKLKKMEQNKTAATRYRQKKRAEQEALTGECKELEKKNEALKERADSLAKEIQYLKDLIEEVRKARGKKRVP

- Variants of: B1
- SETUP CONDITIONS: with ldoc1_human LDOC1, O95751
- Sequence (O95751 whole entry): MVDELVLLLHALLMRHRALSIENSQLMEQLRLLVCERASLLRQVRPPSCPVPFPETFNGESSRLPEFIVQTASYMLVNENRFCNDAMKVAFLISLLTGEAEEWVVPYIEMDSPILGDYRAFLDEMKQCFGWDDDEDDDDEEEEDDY
MEASUREMENT TYPE: effect of a mutation on the interaction

P258A ... with no effect
T137S ... with no effect
A324V ... with no effect
